- Tested on: Tov-21-G
- test: Primary qHTS to identify gynecologic anti-cancer compounds using libraries of approved drugs and bioactive compounds (AID 1345084); also: nearly all actives have a fitted effect of over 55% in size
- experimental.parameters: Gynecologic cancer cell panel viability, ATPlite luminescence, 48 h; series mostly up to 57.5 µM
Inconclusive results are not listed. Active and inactive are the calls of the source. Calls follow the shape of the dose curve; as a rule, active = well fitted cell-killing curve with a large enough effect; inconclusive = small, poorly fitted or top-dose-only effect, or effect the other way; inactive = flat fitted curve, though single readings scatter.
Labels: TRUE for active, FALSE for inactive

molecule	qualitative.label
CN(C(=O)CN1C(=O)COc2cc(Cl)c(Cl)cc21)[C@@H](CN1CCCC1)c1ccc(-c2cccc(C(N)=O)c2)cc1	FALSE
C[C@H]1CN(CC[C@H](O)C2CCCCC2)CC[C@@]1(C)c1cccc(O)c1	FALSE
C=CC(C)(C)c1[nH]c2c(CC=C(C)C)cc(CC=C(C)C)cc2c1C[C@@H]1NC(=O)[C@H](C)NC1=O	FALSE
C=C(C)[C@@]12O[C@@H]1[C@@]1(C)C(=CC2=O)CC[C@@H](OC(C)=O)[C@@H]1C	TRUE
CC(=O)OC[C@]12[C@H](OC(C)=O)C(=O)[C@@H]3[C@@H](O)[C@@]14O[C@@]3(C)COC(=O)c1cccnc1[C@@H](C)[C@H](C)C(=O)O[C@@H]([C@H](OC(C)=O)[C@@H]2OC(C)=O)[C@]4(C)O	FALSE
COc1ccc2[nH]c(-c3ccccc3)c(CCN(C)C)c2c1	FALSE
CC(C)[C@H](NC(=O)c1nn(Cc2ccc(F)cc2)c2ccccc12)C(N)=O	FALSE
C/C=C(/C)C1C=CC2CC(C)CC(C)C2C1/C(O)=C1\C(=O)NC(CC(C)(O)C(=O)O)C1=O (stereo not drawn)	FALSE

---

- Tested on: OV90
- test: Primary qHTS to identify gynecologic anti-cancer compounds using libraries of approved drugs and bioactive compounds (AID 1345084); also: nearly all actives have a fitted effect of over 55% in size
- experimental.parameters: Gynecologic cancer cell panel viability, ATPlite luminescence, 48 h; series mostly up to 57.5 µM
Inconclusive results are not listed. Calls of active or inactive are those of the source. The call rests on the fitted dose curve; in most records, active means well fitted cell-killing curve with a large enough effect; inconclusive means small, poorly fitted or top-dose-only effect, or effect the other way; inactive means flat fitted curve, though single readings scatter.
Outcome codes: Y for active, N for inactive

compound	qualitative.label
CCOc1ccc(Oc2ccc(OCc3cc(F)ccc3F)cc2)c(N)c1	N
CC(=O)O[C@H]1CC[C@H]2[C@@H]3CC[C@H]4CC(=O)C=C(C)[C@]4(C)[C@H]3CC[C@]12C	N
CC[C@@]1(O)C(=O)OCc2c1cc1n(c2=O)Cc2cc3c(OC)cccc3nc2-1	Y
CCN1C[C@]2(COC)CC[C@H](O)[C@@]34C5C[C@@H]6[C@@H](OC)C[C@@](OC(C)=O)(C5[C@@H]6OC(C)=O)[C@H]([C@H](OC)C23)[C@@H]14 (some centres not stated)	N
CCCCCn1cc(C(=O)C2C(C)(C)C2(C)C)c2ccccc21	N
O=C1CN=C(c2cccc(Br)c2)c2oc3ccccc3c2N1	N
C/C(=C\c1csc(C)n1)[C@@H]1C[C@@H]2O[C@@H]2CCC[C@H](C)[C@H](O)[C@@H](C)C(=O)C(C)(C)[C@@H](O)CC(=O)O1	N
COc1ccc2c3c([nH]c2c1)C(C=C(C)C)N1C(=O)C2CCCN2C(=O)C1C3 (configuration not stated)	N
CC(=O)OC[C@]12C[C@H](OC(=O)CC(C)C)C(C)=C[C@H]1O[C@@H]1[C@H](O)C[C@@]2(C)[C@]12CO2	Y
C[C@]12CCC(=O)C=C1CC[C@@H]1[C@@H]2[C@@H](O)C[C@]2(C)C(=O)CC[C@@H]12	N
C[C@@H]1CN(Cc2ccc(F)cc2)CCN1C(=O)COc1ccc(Cl)cc1NC(N)=O	Y
CCC(C)C1NC(=O)C(C(C)=O)=C1O (configuration not stated)	N
COC1C=CC23c4cc5c(cc4COC2(O)CN(C)C3C1)OCO5 (configuration not stated)	N
C[C@]12CC[C@@H](O[C@@H]3O[C@H](CO)[C@@H](O)[C@H](O)[C@H]3O)C[C@@]1(O)CCC1C2CC[C@]2(C)[C@@H](C3=CC(=O)OC3)CC[C@]12O (some centres not stated)	Y
CN1C(=O)[C@]23CC4C(C)(C)[C@@]5(C[C@@]41CN2CC[C@@]3(C)O)C(=O)Nc1c5ccc2c1OC=CC(C)(C)O2 (some centres not stated)	N
C=CC(C)(C)c1[nH]c2c(CC=C(C)C)cc(CC=C(C)C)cc2c1C[C@@H]1NC(=O)[C@H](C)NC1=O	N
CCOC(=O)Nc1ccc(NCc2c(C)cc(C)cc2C)cc1N	N

Data origin: PubChem BioAssay (NCATS)
